biological target: AR T878A (Homo sapiens, UniProt P10275, T878A); construct: LNCaP cells expressing AR T878A; endogenous in cells; host or cells: LNCaP-luc (LNCaP stably carrying the Cignal Lenti AR Reporter); assay: cell-based; format: cell-based
Sequence (P10275 whole entry T878A): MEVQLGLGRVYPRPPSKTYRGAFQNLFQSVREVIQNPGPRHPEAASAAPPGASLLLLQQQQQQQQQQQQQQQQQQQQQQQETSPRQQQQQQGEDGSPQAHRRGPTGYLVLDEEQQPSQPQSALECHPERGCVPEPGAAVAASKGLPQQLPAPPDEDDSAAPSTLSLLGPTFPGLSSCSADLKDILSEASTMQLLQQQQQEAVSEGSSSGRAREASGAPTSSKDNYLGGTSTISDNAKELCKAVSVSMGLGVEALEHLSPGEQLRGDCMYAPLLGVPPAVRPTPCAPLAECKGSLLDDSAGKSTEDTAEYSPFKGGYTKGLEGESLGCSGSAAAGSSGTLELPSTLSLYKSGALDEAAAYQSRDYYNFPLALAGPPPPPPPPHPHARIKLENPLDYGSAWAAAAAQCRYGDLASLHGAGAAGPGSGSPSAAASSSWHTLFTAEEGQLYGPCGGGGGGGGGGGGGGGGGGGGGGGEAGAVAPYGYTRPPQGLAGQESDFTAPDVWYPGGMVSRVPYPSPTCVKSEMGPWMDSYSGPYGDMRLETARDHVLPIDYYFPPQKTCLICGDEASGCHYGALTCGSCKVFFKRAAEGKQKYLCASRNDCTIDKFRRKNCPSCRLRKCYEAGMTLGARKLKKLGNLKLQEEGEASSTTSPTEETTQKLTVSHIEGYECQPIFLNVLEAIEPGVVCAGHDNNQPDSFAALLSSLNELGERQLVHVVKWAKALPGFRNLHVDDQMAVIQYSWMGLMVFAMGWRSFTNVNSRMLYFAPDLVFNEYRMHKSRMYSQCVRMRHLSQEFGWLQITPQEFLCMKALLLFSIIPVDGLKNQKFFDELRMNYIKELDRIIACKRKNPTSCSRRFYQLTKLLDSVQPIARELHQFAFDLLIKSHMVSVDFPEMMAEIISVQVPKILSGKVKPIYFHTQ
Measured Property: Emax

Some solved cases for reference:
Compound: C[C@]12O[C@](C)(C[C@H]1n1cc(CCO)nn1)[C@H]1C(=O)N(c3ccc(C#N)c(C(F)(F)F)c3)C(=O)[C@H]12 [EITM-1706]
Target: AR T878A (Homo sapiens, UniProt P10275, T878A)
Value Observed: No binding

Compound: CCS(=O)(=O)Nc1ccc2c(c1)C(=O)N(c1ccc(C#N)c(C(F)(F)F)c1)C2=O [EITM-1708]
Target: AR T878A (Homo sapiens, UniProt P10275, T878A)
Value Observed: No binding

Compound: CC(=O)N1CCC(C(=O)N[C@@H]2C[C@@]3(C)O[C@]2(C)[C@@H]2C(=O)N(c4ccc(C#N)c(C(F)(F)F)c4)C(=O)[C@@H]23)CC1 [EITM-1717]
Target: AR T878A (Homo sapiens, UniProt P10275, T878A)
Value Observed: No binding

Compound: CCS(=O)(=O)N[C@@H]1C[C@@]2(C)O[C@]1(C)[C@@H]1C(=O)N(c3ccc(C#N)c(C(F)(F)F)c3)C(=O)[C@@H]12 [BMS-641988, reference compound]
Target: AR T878A (Homo sapiens, UniProt P10275, T878A)
Value Observed: agonist

Here's the next entry for you.
Item under review: CCS(=O)(=O)N[C@@H]1C[C@@]2(C)O[C@]1(C)[C@@H]1C(=O)N(c3ccc(C#N)c(C(F)(F)F)c3F)C(=O)[C@@H]12 [EITM-1705] . Reported Emax?
agonist

----------
target: AR T878A (Homo sapiens, UniProt P10275, T878A); construct: LNCaP cells expressing AR T878A; endogenous in cells; host or cells: LNCaP-luc (LNCaP stably carrying the Cignal Lenti AR Reporter); test: cell-based; format: cell-based
Measured Property: ED50

Compound: CC(=O)N1CCC(C(=O)N[C@@H]2C[C@@]3(C)O[C@]2(C)[C@@H]2C(=O)N(c4ccc(C#N)c(C(F)(F)F)c4)C(=O)[C@@H]23)CC1
Value Observed: No binding
//
Compound: CCS(=O)(=O)N[C@@H]1C[C@@]2(C)O[C@]1(C)[C@@H]1C(=O)N(c3ccc(C#N)c(C(F)(F)F)c3F)C(=O)[C@@H]12
Value Observed: agonist
//
Compound: C[C@]12O[C@](C)(C[C@H]1n1cc(CCO)nn1)[C@H]1C(=O)N(c3ccc(C#N)c(C(F)(F)F)c3)C(=O)[C@H]12
Value Observed: No binding
//
Compound: CCS(=O)(=O)N[C@@H]1C[C@@]2(C)O[C@]1(C)[C@@H]1C(=O)N(c3ccc(C#N)c(C(F)(F)F)c3)C(=O)[C@@H]12 [BMS-641988, reference compound]
Value Observed: agonist

Find ED50 (AR T878A (Homo sapiens, UniProt P10275, T878A)) for the entry `CCS(=O)(=O)Nc1ccc2c(c1)C(=O)N(c1ccc(C#N)c(C(F)(F)F)c1)C2=O`
No binding

// data source = patent US12552806B2
